- test.method.notes: DNDI: Cytotoxicity against human MRC-5 lung fibroblast cells.
- run.parameters: IC50
pIC50: −log10 of the molar value.
reported.metric: pIC50

O=C(CC(Sc1cccc2cccnc12)c1ccc(F)cc1)c1cccs1 (configuration not stated)
< 4.68
COc1ccccc1C(NC(=O)C1CCCCC1)c1ccc2cccnc2c1O (configuration not stated)
< 4.38
Cc1nc2sccn2c1C(=O)N/N=C/c1c(O)ccc2ccccc12
< 5.38
Cc1cc(N2CCN(C)CC2)c2[nH]c3ccccc3c2c1
5.14
CN(C)CCCNc1nc(-c2ccc(Cl)cc2)nc2ccccc12
< 4.68
O=C(/C=C/c1ccccc1Cl)Nc1ccc2ccccc2c1
< 4.38
O=C1c2ccccc2C(=O)N1/N=C/c1ccccc1
< 4.38
CCCOc1cccc(C(=O)Nc2cccc(-c3nc4ncccc4o3)c2C)c1
< 5.38
CC(C)COc1ccc2c(c1)c1c3n2CNCC3CCC1 (configuration not stated)
< 4.68
O=C1CC(Sc2nc(-c3ccco3)cc(C(F)(F)F)n2)C2COC1O2 (configuration not stated)
< 4.68
CN(C)CCOc1ccccc1C1NCCc2c1[nH]c1ccccc21 (configuration not stated)
< 4.68
CCN(CC)c1ccc(/C=N/n2cnnc2)c(O)c1
< 4.38
CC(C)C1N=C(c2ccc3c(c2)OCO3)CC(c2cc(Cl)ccc2O)N1 (configuration not stated)
< 4.38
O=C1CC(n2nnn(-c3ccccc3Cl)c2=S)C2COC1O2 (configuration not stated)
< 4.38
COc1ccc(C(NC(=O)C(C)C)c2ccc3cccnc3c2O)cc1OC (configuration not stated)
5.64
CC(C)CC[n+]1ccccc1C=Cc1ccc(N(C)C)cc1
< 4.98
CC[N+]1=C(/C=C/N(C)C)c2cccc3cccc1c23
< 4.68
C1=C(N2CCNCC2)c2ccccc2Sc2ccccc21
< 4.68
CC1(C)N=C(N)N=C(N)N1OCc1ccc(F)c(-c2ccc(F)cc2)c1
< 5.68
Cc1cc(C)nc(C(=N)Nc2nc(-c3ccccn3)cc3ccccc23)n1
6.67
COc1ccc(C2=NC3(CCN(C(C)C)CC3)NC(c3ccccc3O)C2)cc1 (configuration not stated)
< 4.68
S=c1c(Cl)c(Cl)cnn1-c1ccccc1
< 4.68
Clc1cccc(CNC2=Nc3ccccc3NC23CCNCC3)c1
5.04
O=C(Nc1ccc(Cl)cc1)O/N=C(/c1ccc(Cl)cc1)N1CCOCC1
< 4.38
Cc1ccc(-n2nnnc2CNC(=O)c2cccs2)cc1C
< 4.38
O=C(Cc1cc(O)[nH]n1)N/N=C/C=C/c1ccccc1
< 4.38
Cc1c(-c2cccc3c2OC(C)(C)C3)ccc2nc(N)nc(N)c12
< 5.38
COc1ccc2[nH]c(C)c(CCNCCC3=C(C)CCCC3(C)C)c2c1
5.23
c1ccc(Nc2nc(-c3ccccc3)c3ccccn23)cc1
< 4.38
COc1ccc(-c2cc3ccccc3n2CC(O)CNCCO)cc1 (configuration not stated)
< 4.68
CCCC(=O)NC(c1cccc(F)c1)c1ccc2cccnc2c1O (configuration not stated)
< 4.68
COc1ccccc1C/C(N)=N/OC(=O)c1ccc(OC)c(OC)c1
< 5.38
C=CCc1cccc(/C=N/NC(=O)c2cc(-c3ccc4ccccc4c3)n[nH]2)c1O
< 4.38
CN1C=C/C(=C\C=C2/C=Nc3ccccc32)c2ccccc21
< 5.38
Cc1cc(OCC(O)CNC(C)c2ccccc2)cc(C)c1Cl (configuration not stated)
< 4.38
CCOC(=O)c1ccc(Nc2nnc(C(C)(C)C)c(O)n2)cc1
< 4.38
CCN1C=Cc2ccccc2/C1=C\c1ccc2ccccc2[n+]1CC
< 5.38
CCN(CC)c1ccc(/C=N\NC(=O)Cc2cccn2C)c(O)c1
< 5.38
Cn1c(=N)n(CC(=O)c2cc(C(C)(C)C)c(O)c(C(C)(C)C)c2)c2ccccc21
< 4.68
Cc1c(-c2cccc(NC(=O)c3cccs3)c2)nc2ncccn12
< 4.38
N/C(Cc1cccc2ccccc12)=N\OC(=O)N1CCOCC1
< 4.68
CN(C)CCCC1(O)c2ccccc2C2(CC2)c2ccccc21
< 4.98
Cc1ccc(C(=O)C(CO)n2ccnc2)cc1 (configuration not stated)
< 4.38
Cc1c(Br)c(C(=O)N/N=C/c2c(O)ccc3ccccc23)nn1C
< 4.68
CN(C)c1cc[n+](Cc2c(Cl)cccc2Cl)cc1
< 4.38
COc1ccc(C(=N)NOC(=O)c2ccco2)cc1
< 4.68
NC(=O)c1ccc(Nc2ccccc2)[nH]c1=O
5.28
